Tested on: A549 NSCLC
protocol_details: NCI tumour cell line growth inhibition, 48 h; in the data active means GI50 below about 0.43 µM; inactive means the rest
Possible outcomes: True for active, False for inactive

• CC(C)n1cc(-c2ccc3c(c2)N(C)CC3)c2c(NS(=O)(=O)c3ccn(C)n3)ccnc21 = False
• CCCCCCCCCCCCC(O)C1CCC(C(O)CCCCC(O)CCCCCC2CC(CC(C)=O)C(=O)O2)O1 (centres undefined) = False
• Nc1c(C(=O)Nc2cccc(Cl)c2)sc2nc3c(cc12)C(O)CCC3 (centres undefined) = False
• CCN1CCN(Cc2ccc(NC(=O)Nc3nc(-c4cc(OC)c(OC)c(OC)c4)cs3)cc2C(F)(F)F)CC1 = False
• COc1cc(/C=C2\CCC/C(=C\c3cc(CN4CCCC4)c(O)c(OC)c3)C2=O)cc(CN2CCCC2)c1O = False
• CC(=O)[O-].CC(=O)[O-].O=C([CH-]C(=O)c1ccccc1)c1ccccc1.[Nd+3].[OH3+] = False
• Clc1nc(Cl)c2ncn(-c3ccccc3)c2n1 = False
• COC(=O)CN1Cc2cc(C)cc(c2O)CN(CC(=O)OC)Cc2cc(C)cc(c2O)CN(CC(=O)OC)Cc2cc(C)cc(c2O)CN(CC(=O)OC)Cc2cc(C)cc(c2O)C1 = False
• C[C@@]12CC[C@@H](O)C[C@@H]1CC[C@H]1[C@H]2CC[C@@]2(C)[C@H](c3ccc(=O)oc3)CC[C@@]12O = True
